Entry source: patent US20040023887A1

molecular target: T1, Insulin receptor prepared according to Bass et al., 1996 (soluble IR-immunoglobulin chimera) (human, UniProt P06213 28-956); assay: phage ELISA, receptor coated on plate; A405 over non-fat milk
T1 construct: extracellular domain; also called sIR-Fc; soluble IR (Bass construct); not shown: immunoglobulin constant domains replacing the transmembrane and intracellular domains
Mark each entry true (1) if its ratio over background (IR) sits below 1 fold over background, and false (0) for all others.

Completed entries (count: 4):
binder="AETSAQVGWQRLWSVWPGDHWSTLDPFYHKLSELLRESGA (library tags and phage coat protein not included) [B6L-3-G5-IR]" label_value="false (0)"
binder="CGAKMTGTPNDPFYHKLSELLQRG (library tags and phage coat protein not included) [B6Hα-3-E6-IR]" label_value="false (0)"
binder="VRGFQGGTVWPGYEWLRNAA (tags and coat protein not included; Formula 10 (Group 6) clone) [R20β-4-E8-IR]" label_value="false (0)"
binder="GLDHSDAVGVHLGFAWPAQARGRWEAGGLEDTWAGYDWL (tags and coat protein not included; Formula 10 (Group 6) clone) [40F-4-B1-IGFR]" label_value="true (1)"

Moving on to another binder below.
Request: State whether 1 fold over background exceeds ratio over background (IR) recorded for MNVFVSFYDAIDQLVCQRIGC (library tags and phage coat protein not included) [20E2A-4-G11-IGFR] .
Result: false (0)
